src = ChEMBL document CHEMBL5113401

Tested on: HeLa
ASSAY_NAME: Induction of cell cycle arrest in human HeLa cells assessed as accumulation of cells at G1 phase at 1 uM incubated for 6 hrs by FACS flow cytometry analysis (reference value: 69.94 +/- 1.71 %)
Assay type: functional
One threshold, 30%, splits the recorded Activity values: lower ones are true (1), equal or higher ones are false (0).

[
  {
    "SMILES_NOTATION": "Cc1[nH]c2c(c1-c1nnc(-c3cccc(Cl)c3)[se]1)Cc1ccccc1-2",
    "ANSWER_LABEL": "true (1)"
  },
  {
    "SMILES_NOTATION": "Cc1[nH]c2c(c1-c1nnc(-c3ccccc3Cl)[se]1)Cc1ccccc1-2",
    "ANSWER_LABEL": "false (0)"
  },
  {
    "SMILES_NOTATION": "Cc1[nH]c2c(c1-c1nnc(-c3ccccc3)s1)Cc1ccccc1-2",
    "ANSWER_LABEL": "true (1)"
  },
  {
    "SMILES_NOTATION": "Cc1[nH]c2c(c1-c1nnc(-c3ccccc3)[se]1)Cc1ccccc1-2",
    "ANSWER_LABEL": "true (1)"
  },
  {
    "SMILES_NOTATION": "Cc1[nH]c2c(c1-c1nnc(-c3ccccc3Cl)s1)Cc1ccccc1-2",
    "ANSWER_LABEL": "true (1)"
  }
]

Item Cc1[nH]c2c(c1-c1nnc(-c3ccccc3)o1)Cc1ccccc1-2 : Activity beneath 30%, strictly?
true (1)
